This section presents compounds with their documented Melanosomal drug uptake (%), average values.
system: ARPE-19mel cells; test: Melanosomal drug uptake assay in re-pigmented ARPE-19mel cells (medium concentration vs non-pigmented ARPE-19, LC-MS/MS); assay type: in vitro ADME, human; details: 30 % stage of pigmentation (20 µg melanin/well); 4 µM drug, 20 hours, serum-free medium

compound: CC(C)(C)NC[C@H](O)COc1nsnc1N1CCOCC1
Melanosomal drug uptake (%), average: 31.2%
//
compound: CC[C@@H]1C(=O)OC[C@@H]1Cc1cncn1C
Melanosomal drug uptake (%), average: 23.5%
//
compound: CC(C)NCC(O)COc1cccc2ccccc12 (stereo not drawn)
Melanosomal drug uptake (%), average: 76.1%
//
compound: CN(Cc1cnc2nc(N)nc(N)c2n1)c1ccc(C(=O)N[C@@H](CCC(=O)O)C(=O)O)cc1 [methotrexate]
Melanosomal drug uptake (%), average: 3.9%
//
compound: O=C(O)Cc1ccccc1Nc1c(Cl)cccc1Cl
Melanosomal drug uptake (%), average: 1.2%
//
compound: CCN(CC)CCCC(C)Nc1ccnc2cc(Cl)ccc12 (stereo not drawn)
Melanosomal drug uptake (%), average: 93.3%

// data source = paper PMC6760193
